Tested on: Mus musculus
Assay: Antiepileptic activity in CF1 mouse assessed as inhibition of maximal electroshock-induced seizures at 300 mg/kg, ip after 0.5 hrs
Format: functional, organism-based
Design: dose 300 mg/kg
Activity calls are given as the source filed them. The rule behind the calls is not given here.

COMPOUND	Activity
CNC(=O)CC(C)(C)C	inactive
CC(C)(C)C(N)=O	inactive
CCC(C)C(N)=O (stereo not drawn)	inactive
CCC(C)C(CC)C(=O)NC(N)=O (stereo not drawn) [CAPURIDE]	Active
CCCC(C(=O)NC)C(C)C (stereo not drawn)	inactive
CNC(=O)C(C(C)C)C(C)C	Active
CC(C)(C)CC(=O)NC(N)=O	Active
CCCC(CC)C(N)=O (stereo not drawn)	Active
